system-under-test: hα7-wt nAChR-expressing GH4Cl cells (Homo sapiens)
Construct: expressed in transfected cells
assay-details: Patch-clamp current recording (whole-cell), potentiation of choline 1 mM response, PAM type
Type: cell-based
Design: key: Type 0 compounds minimally enhance the effect size of the current elicited by 1 mM choline.; Type 1 compounds enhance the effect size of the current elicited by 1 mM choline but minimally alter the kinetics of the receptor.; Type 2 compounds enhance the effect size of the current elicited by 1 mM choline while reducing the rate and/or the extent of desensitization.; Type 3 compounds enhance the effect size of the current elicited by 1 mM choline. When tested at higher concentrations up to 10 μM they completely inhibit desensitization, in particular a 1 mM choline application of 250 milliseconds.; Type 4 compounds allow for an initial desensitization of the receptor followed by a re-opening of the receptor during agonist application
setup-conditions: patch-clamp current recording, 1 mM choline
Documented Pam type across a set of molecules
Number, no unit, nothing else.

Below: 6 molecules and their reported Pam type.
Entry COc1cc(Nc2nc(C[C@H](C)O)n(-c3ccnc(C)c3)n2)cc(C(F)(F)F)c1 [E135] , Pam type reported as 4

Form field Pam type, entry CC[C@H](O)Cc1nc(Nc2ccc(F)c(F)c2)nn1-c1ccc(C)nc1 [E140] : 2

Per the records, this molecule ( Cc1cc(-n2nc(Nc3cccc(C(F)(F)F)c3)nc2CC(=O)NC2CCC2)cc(C)n1 [E174] ) has Pam type equal to 2

Record summary for CN(C)C(=O)CCc1nc(Nc2cccc(OC(F)(F)F)c2)nn1-c1ccc2c(c1)OCCO2 [E170] : reported Pam type = 4

For record Cc1cc(-n2nc(Nc3cccc(OC(F)(F)F)c3)nc2CCC(=O)N(C)C)ccn1 [E73] the listed Pam type is 4

Sure, the documented Pam type for CCNC(=O)Cc1nc(Nc2ccc(F)c(C(F)(F)F)c2)nn1-c1cc(C)nc(C)c1 [E224] is 1

Continuing:
Just so you know, measured Pam type for CC[C@@H](O)Cc1nc(Nc2ccc(F)c(F)c2)nn1-c1ccnc(C)c1 [E134] came out at 2

----------
Quick reference for log10 of EC50 among some molecules
system-under-test: hα7-wt nAChR-expressing GH4Cl cells (Homo sapiens, UniProt P36544)
Construct: expressed in transfected cells
Sequence (P36544 23-502): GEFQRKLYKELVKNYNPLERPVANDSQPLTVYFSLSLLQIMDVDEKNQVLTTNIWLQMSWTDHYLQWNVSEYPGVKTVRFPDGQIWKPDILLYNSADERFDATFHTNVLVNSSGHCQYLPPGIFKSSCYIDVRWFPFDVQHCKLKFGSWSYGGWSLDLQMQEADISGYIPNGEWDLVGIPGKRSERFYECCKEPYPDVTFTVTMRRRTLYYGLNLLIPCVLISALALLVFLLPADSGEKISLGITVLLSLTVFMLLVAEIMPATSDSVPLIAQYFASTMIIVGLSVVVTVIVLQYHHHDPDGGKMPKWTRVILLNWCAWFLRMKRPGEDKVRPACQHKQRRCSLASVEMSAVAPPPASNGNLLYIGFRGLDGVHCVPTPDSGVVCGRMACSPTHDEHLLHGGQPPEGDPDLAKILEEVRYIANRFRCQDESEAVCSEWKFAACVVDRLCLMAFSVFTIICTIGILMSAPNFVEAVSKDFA
assay-details: Patch-clamp current recording (whole-cell), potentiation of choline 1 mM response, PAM type
Type: cell-based
setup-conditions: according to Ex. D.2; "<5" = no top plateau reached at maximal concentration; read-out: Potency (pEC50) (converted)
All values: log10 EC50 [µM].

Illustrative cases are given below, each with its answer.
For CCNC(=O)Cc1nc(Nc2ccc3c(c2)OC(F)(F)O3)nn1-c1cc(C)nc(C)c1 [E200] on hα7-wt nAChR-expressing GH4Cl cells (Homo sapiens, UniProt P36544), measured log10 of EC50 was -0.39

Value sought: log10 of EC50, system hα7-wt nAChR-expressing GH4Cl cells (Homo sapiens, UniProt P36544), item CNC(=O)Cc1nc(Nc2ccc(F)c(C(F)(F)F)c2)nn1-c1cc(C)nc(C)c1 [E223] . Result: -0.50

Further cases:
Reported hα7-wt nAChR-expressing GH4Cl cells (Homo sapiens, UniProt P36544) log10 of EC50 for item CCNC(=O)Cc1nc(Nc2cccc(Cl)c2F)nn1-c1cc(C)nc(C)c1 [E153] was -0.25

----------
system-under-test: hα7-wt nAChR-expressing GH4Cl cells (Homo sapiens)
Construct: expressed in transfected cells
assay-details: Patch-clamp current recording (whole-cell), potentiation of choline 1 mM response, PAM type
Type: cell-based
setup-conditions: according to Ex. D.2; "<5" = no top plateau reached at maximal concentration; read-out: Potency (pEC50) (converted)
parameter-measured: log10(EC50) (log10 of the value in nM)
In our notation, the value equals log10 of EC50 in nM.

Look over these answered cases.
Please fill in: log10(EC50) reported for CC[C@H](O)Cc1nc(Nc2ccc(F)c(F)c2)nn1-c1cccc(OC)c1 = 3.14

// log10(EC50) value for Cc1cc(-n2nc(Nc3ccc(F)c(F)c3F)nc2C[C@H](C)O)ccn1 : 3.80

Lab note: Cc1cc(-n2nc(Nc3cc(F)cc(Cl)c3)nc2CC(=O)NC2CCC2)cc(C)n1 gave log10(EC50) of 2.03

Recorded log10(EC50) (compound Cc1cc(-n2nc(Nc3ccc(F)c(C(F)(F)F)c3)nc2CCO)ccn1 ): 2.72

Now consider a different compound.
# log10(EC50) (compound: Cc1cc(-n2nc(Nc3ccc(F)c(F)c3F)nc2CC(=O)NC2CC2)cc(C)n1 ) is 2.57

----------
system-under-test: hα7-wt nAChR-expressing cells (Homo sapiens, UniProt P36544)
Construct: expressed in transfected cells; host or cells: hα7-wt nAChR-expressing cells
Sequence (P36544 23-502): as above
assay-details: Ca2+ flux imaging (FDSS) (Protocol B), PAM activity with choline 100 μM
Type: cell-based
setup-conditions: according to Ex. D.1b; read-out: % Efficacy
parameter-measured: Emax (%)
Enter your answer as a number in %; do not include the unit.

Some compounds with known Emax results, for comparison:
The compound listed as Cc1cc(-n2nc(Nc3cc(F)c(F)c(F)c3)nc2CC(=O)NC2CCC2)cc(C)n1 shows Emax equal to 676

Measured Emax of CNC(=O)CCc1nc(Nc2ccc(F)c(F)c2)nn1-c1ccccc1Cl : 253

Consider CNC(=O)Cc1nc(Nc2cc(F)cc(C(F)(F)F)c2)nn1-c1cc(C)nc(C)c1 . Its measured Emax is 658

Record summary for Cc1cc(-n2nc(Nc3cccc(Cl)c3F)nc2CCC(=O)N(C)C)cc(C)n1 : reported Emax = 616

# Emax of CCNC(=O)Cc1nc(Nc2ccc(F)c(Cl)c2)nn1-c1cc(C)nc(C)c1 = 546

The compound identified as CNC(=O)Cc1nc(Nc2ccc(F)c(C(F)(F)F)c2)nn1-c1cc(C)nc(C)c1 registered its Emax at 603

GET /value?item= C/C=C/c1nc(Nc2ccc(F)c(C(F)(F)F)c2)nn1-c1ccnc(C)c1 &field=Emax returns 341

// recorded Emax for Cc1cc(-n2nc(Nc3ccc(F)c(Cl)c3)nc2CC(=O)NC2CCC2)cc(C)n1 : 606

Let's switch to this compound now.
Per the records, this compound ( CNC(=O)Cc1nc(Nc2cc(F)cc(Cl)c2)nn1-c1cc(C)nc(C)c1 ) has Emax equal to 614

----------
system-under-test: hα7-wt nAChR-expressing GH4Cl cells (Homo sapiens)
Construct: expressed in transfected cells
assay-details: Patch-clamp current recording (whole-cell), potentiation of choline 1 mM response, PAM type
Format: cell-based
setup-conditions: according to Ex. D.2; "<5" = no top plateau reached at maximal concentration; read-out: Potency (pEC50) (converted)
Assign labels as follows, please: condition met for EC50 below 0.9 µM; condition not met for EC50 equal to or exceeding 0.9 µM.

Qu. Just wondering, is EC50 of CNC(=O)CCc1nc(Nc2ccc(F)c(F)c2)nn1-c1ccncc1 [E52] below 0.9 µM?
Ans. condition not met

---
Qu. I'd appreciate it if you could check whether COc1ccc(Nc2nc(CC(=O)NC3CC3)n(-c3cc(C)nc(C)c3)n2)cc1C(F)(F)F [E229] has EC50 smaller than 0.9 µM.
Ans. condition met

----------
system-under-test: hα7-wt nAChR-expressing GH4Cl cells (Homo sapiens, UniProt P36544)
Construct: expressed in transfected cells
assay-details: Patch-clamp current recording (whole-cell), potentiation of choline 1 mM response, PAM type
Assay type: cell-based
setup-conditions: according to Ex. D.2; "<5" = no top plateau reached at maximal concentration; read-out: Potency (pEC50) (converted)
Each entry below carries its recorded log10 of EC50.
Give log10 of EC50, with EC50 taken in µM.

Solved cases below.
# lookup: CNC(=O)Cc1nc(Nc2cc(F)c(F)c(F)c2)nn1-c1cc(C)nc(C)c1 [E240] on hα7-wt nAChR-expressing GH4Cl cells (Homo sapiens, UniProt P36544), log10 of EC50 = -0.31

hα7-wt nAChR-expressing GH4Cl cells (Homo sapiens, UniProt P36544) data for CC[C@H](O)Cc1nc(Nc2cc(OC)cc(C(F)(F)F)c2)nn1-c1ccc(C)nc1 [E142] ; its log10 of EC50: -0.74

Simply: CNC(=O)Cc1nc(Nc2cc(F)cc(C(F)(F)F)c2)nn1-c1cc(C)nc(C)c1 [E251] , hα7-wt nAChR-expressing GH4Cl cells (Homo sapiens, UniProt P36544), log10 of EC50 = -0.58

Value (log10 of EC50, hα7-wt nAChR-expressing GH4Cl cells (Homo sapiens, UniProt P36544)) for record Cc1cc(-n2nc(Nc3ccc4c(c3)OC(F)(F)O4)nc2CC(=O)NCC2CC2)c(C)cn1 [E161] = 0.12

Readout log10 of EC50 for CCNC(=O)Cc1nc(Nc2ccc(F)c(F)c2F)nn1-c1cc(C)nc(C)c1 [E210] , test system hα7-wt nAChR-expressing GH4Cl cells (Homo sapiens, UniProt P36544), was -0.38

***
Form field, log10 of EC50 with hα7-wt nAChR-expressing GH4Cl cells (Homo sapiens, UniProt P36544), item COCCCc1nc(Nc2ccc(F)c(C(F)(F)F)c2)nn1-c1ccnc(C)c1 [E15] : -0.96

The compound COCCCc1nc(Nc2ccc(F)c(C(F)(F)F)c2)nn1-c1ccncc1Cl [E12] , when measured on hα7-wt nAChR-expressing GH4Cl cells (Homo sapiens, UniProt P36544), yielded log10 of EC50 of 0.35

Query Cc1cc(-n2nc(Nc3ccc(F)c(F)c3F)nc2C[C@H](C)O)cc(C)n1 [E189] on hα7-wt nAChR-expressing GH4Cl cells (Homo sapiens, UniProt P36544); log10 of EC50 returned: -0.20
